Sourced from patent US20060204981A1

- System: MCF7 cells
- protocol-summary: NAD+ supplementation experiment, MTT assay
- Assay type: cell-based
- stated-conditions: Homo sapiens, control (no NAD+ supplementation), 4 h, MTT (FIG. 8), read-out: IC50 (cytotoxicity)
pIC50: −log10 of the molar value.
metric: pIC50

Inquiry: Entry `CC1(C)CCC2=C(O1)c1ccccc1C(=O)C2=O` , system MCF7 cells: what pIC50 was measured?
Reply text: ~5.57

###

- System: HeLa cells
- protocol-summary: MTT cell death assay, HeLa cells
- Type: cell-based
- stated-conditions: Homo sapiens, HeLa; cytotoxicity IC50 quoted in the NAD+ depletion example; cell line not given
metric: IC50

Inquiry: Entry CC1(C)CCC2=C(O1)c1ccccc1C(=O)C2=O [β-lapachone] , system HeLa cells: what IC50 was measured?
Reply text: ~2.8 µM
